target-under-test: T1, biotin-labelled EZH2 protein (UniProt Q15910 1-746, limits assumed, biotin label (EZ-link NHS-PEO4-Biotinylation kit))
T1 construct: Probe in solution (1 ug/ml) on the KDM2B peptide microarray; also called NHS-PEO4-Biotinylation-labelled EZH2 protein; recombinant protein
T1 sequence (Q15910 whole entry): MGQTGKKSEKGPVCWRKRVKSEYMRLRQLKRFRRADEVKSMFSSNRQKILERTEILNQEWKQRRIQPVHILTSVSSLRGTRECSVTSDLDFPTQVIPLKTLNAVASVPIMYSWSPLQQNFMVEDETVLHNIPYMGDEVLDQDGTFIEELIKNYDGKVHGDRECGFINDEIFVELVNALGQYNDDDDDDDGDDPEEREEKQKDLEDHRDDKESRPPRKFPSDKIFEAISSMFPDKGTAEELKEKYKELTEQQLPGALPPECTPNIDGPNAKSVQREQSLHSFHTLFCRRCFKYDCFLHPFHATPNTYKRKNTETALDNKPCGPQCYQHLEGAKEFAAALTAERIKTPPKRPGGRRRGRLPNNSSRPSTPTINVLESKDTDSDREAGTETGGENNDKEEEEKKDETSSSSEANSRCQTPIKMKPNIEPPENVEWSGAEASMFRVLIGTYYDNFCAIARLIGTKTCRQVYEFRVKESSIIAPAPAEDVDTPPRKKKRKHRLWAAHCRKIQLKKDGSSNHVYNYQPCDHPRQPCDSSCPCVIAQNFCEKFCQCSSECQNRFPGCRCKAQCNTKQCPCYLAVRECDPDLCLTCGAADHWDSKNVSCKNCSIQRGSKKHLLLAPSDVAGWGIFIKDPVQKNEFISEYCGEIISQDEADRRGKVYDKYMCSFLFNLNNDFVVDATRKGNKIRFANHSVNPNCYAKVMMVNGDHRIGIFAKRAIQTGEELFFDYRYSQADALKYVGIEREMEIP
protocol: KDM2B peptide array probed with biotin-EZH2 1 ug/ml, SA-HRP/ECL;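 also: 100% is the highest background-corrected spot optical density on the membrane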;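 also: Background-corrected optical density of each spot on the membrane, given as percent of the brightest spot (100%), color developed for 5 minutes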
Label class 1 when Intensity (%) is at or above 0.6%; anything below gets class 0.

Request: # bool: Intensity (%) of AGLDITDASLRLIIR [peptide 245] >= 0.6%
Result: class 0

Request: # bool: Intensity (%) of CIAPVLPHTAVCLVC [peptide 131] >= 0.6%
Result: class 1

Request: # bool: Intensity (%) of VCLVCGEAGKEDTVE [peptide 133] >= 0.6%
Result: class 1

Request: # bool: Intensity (%) of EGVKNVLKEHADDDP [peptide 110] >= 0.6%
Result: class 0

Request: # bool: Intensity (%) of RGGKIFWLIPPTLHN [peptide 52] >= 0.6%
Result: class 0

Continuing:
Request: # bool: Intensity (%) of PPPSVSPPKCIQMER [peptide 206] >= 0.6%
Result: class 1

Request: # bool: Intensity (%) of GDFVHAMEGKDFNYE [peptide 17] >= 0.6%
Result: class 0

From: patent US20250197451A1
